We begin with a simple list: items and their reported calcium oscillation score.
target: Tau; test: rat primary cortical neurons, FLIPR, 25 uM ASO
Bases are written 5' to 3'; sugars and linkages follow in the same order, as letters with counts (s phosphorothioate, o phosphodiester; PS: all linkages phosphorothioate). The collection does not say whether C is 5-methylated. l = locked nucleic acid (LNA); d = 2'-deoxy (DNA)

These solved cases illustrate the format of a correct answer.
{"columns": ["sequence_input", "system_tested", "measured_value"],
 "data": [
  ["CCTGGTGGCGTTGGCC (sugars l3 d10 l3, PS)", "Tau", "32.6 % of control"],
  ["CCTTACCACTTTCAGG (sugars l3 d10 l3, PS)", "Tau", "111 % of control"],
  ["TCTTTGCTTTTACTGACCAT (sugars l3 d14 l3, PS)", "Tau", "29.6 % of control"]
]}

// Input: ATTTAATTTATTTTTTACT (sugars l4 d11 l4, PS) . Output its calcium oscillation score only.
60.1 % of control

// Input: TCCCAGCGTGATCTTCCATC (sugars l5 d11 l4, PS) . Output its calcium oscillation score only.
85.2 % of control

// Input: TTTATTTCCAAATTCACTTT (sugars l3 d14 l3, PS) . Output its calcium oscillation score only.
≥ 200 % of control

// Input: TCCTGGCCATCTTATGCTGA (sugars l3 d14 l3, PS) . Output its calcium oscillation score only.
31.2 % of control

// Input: AAATCAATTCTCATTTCAAC (sugars l4 d12 l4, PS) . Output its calcium oscillation score only.
58.2 % of control
